target: PepT1 (Mus musculus); assay: In situ single-pass jejunal perfusion of [3H]fMet-Leu-Phe
Sequence (Q9JIP7 whole entry, the tested form may be a part): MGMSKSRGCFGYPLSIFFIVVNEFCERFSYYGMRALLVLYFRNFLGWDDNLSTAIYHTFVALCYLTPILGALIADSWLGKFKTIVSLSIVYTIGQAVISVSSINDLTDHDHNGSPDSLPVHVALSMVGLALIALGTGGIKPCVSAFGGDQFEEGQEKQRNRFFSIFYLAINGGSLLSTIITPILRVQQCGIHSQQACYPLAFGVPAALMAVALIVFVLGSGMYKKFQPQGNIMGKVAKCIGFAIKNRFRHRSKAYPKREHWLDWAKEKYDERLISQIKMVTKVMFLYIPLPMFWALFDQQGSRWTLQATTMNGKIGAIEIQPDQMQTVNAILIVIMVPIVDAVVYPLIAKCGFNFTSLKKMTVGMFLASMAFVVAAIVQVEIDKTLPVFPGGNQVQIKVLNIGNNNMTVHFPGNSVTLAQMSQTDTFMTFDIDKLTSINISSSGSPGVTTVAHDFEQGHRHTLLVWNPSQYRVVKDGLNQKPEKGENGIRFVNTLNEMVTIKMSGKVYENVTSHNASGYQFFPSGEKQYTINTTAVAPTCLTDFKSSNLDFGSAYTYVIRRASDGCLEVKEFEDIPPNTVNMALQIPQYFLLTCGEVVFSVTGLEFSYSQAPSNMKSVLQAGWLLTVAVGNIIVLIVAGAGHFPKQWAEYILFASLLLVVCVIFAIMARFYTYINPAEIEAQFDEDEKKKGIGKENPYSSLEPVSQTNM
Peptide text beside a SMILES is read from it.
readoutKind: pKi
Note on units: pKi is unitless, being -log10 of a concentration expressed in mol/L.

# input molecule: NCC(=O)N1CCC[C@H]1C(=O)O [GlyPro, glycylproline] (H-Gly-Pro-OH) ; wanted: its pKi
1.00
